- systemName: human Retinoic Acid Receptor gamma (RARg), RARG (gene 5916)
- assayNotes: ATG_RARg_TRANS: Attagene TRANS-FACTORIAL HepG2 Assay for human Retinoic Acid Receptor gamma (RARg) (AID 2283009)
Inconclusive results are not listed. The source made the active and inactive calls. The calls were made as follows: active = hit-call score of the fitted dose curve at least 0.9, where 1 is the maximum; inconclusive = response in the unintended direction; inactive = score below 0.9.
Hello, when you answer, please use one of the following outcomes: yes = active, no = inactive

Please review the entries below; each comes with its answer.
CC=CC(=O)O: no
O=C(Oc1ccccc1)c1ccccc1: no
CCCOCCC: no
CCCCCCCCCCCCCCCCCC[N+](C)(C)C: yes

From here, focus on the item given below.
Hi team, can someone confirm the assay call for `Clc1ccccn1` ?
no
